These entries and their values trace back to PubChem BioAssay AID1159580.

# assay protocol: chemical genetic growth profiling, strain panel (AID 1159580);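 also: tested at 20 µM; growth read once vehicle control cultures reached saturation at 30 °C; 1 = growth at the plate median or of vehicle wells; lower values mean less growth of the strain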
# protocol conditions: S. cerevisiae deletion strains, growth OD, locus YJR043C, strain POL32
In all, about 5,500 compounds went through this assay and about 2,000 (36%) were called active. Inconclusive results (about 18%) are left out. Rule as the data show it: active = normalized growth mostly below about 0.91 (no sharp cut-off); inconclusive = no clear call, values can overlap the other calls; inactive = mostly above about 0.92. The list shows a part of the results.
Tick one outcome: 1 (yes) for active, 0 (no) for inactive

Hey, what did the test say about Cc1cc(O)c2c(c1)C(=O)c1cc(O)cc(O)c1C2=O ?
1 (yes)

Write down the call the test reported for this compound. Item: CC(=O)Nc1ccc(S(=O)(=O)NCCCN2CCN(Cc3ccccc3)CC2)cc1Cl
0 (no)

Per the records of this test, what outcome belongs to O=C(O)c1cccc([N+](=O)[O-])c1C(=O)Nc1ccc(F)cc1 ?
0 (no)

Outcome logged for Cc1cc(O)c2c(c1)C(=O)c1cccc(O)c1C2=O in this assay:
0 (no)

Recorded call for NS(=O)(=O)c1cc2c(cc1Cl)NCNS2(=O)=O ?
0 (no)

Which outcome did this test record for the compound COC1=CC23CCCN2CCc2cc4c(cc2C3C1O)OCO4 (configuration not stated) ?
0 (no)

For CN1C(=O)CC[C@H]1c1cccnc1 , what call appears in the results of this test?
0 (no)

Fill in: this test's call for Cc1ccc(S(=O)(=O)N2CCC(C(c3ccccc3)c3ccccc3)CC2)cc1 is ___
0 (no)

Short answer needed: outcome of this test for O=[N+]([O-])c1cc(Cl)c(Sc2ccccc2)cc1Sc1ccccc1 ?
0 (no)

Returns: the outcome recorded for CC(C)[C@@H]1CC[C@@H](C)C[C@H]1OC(=O)c1ccccc1 in this assay.
0 (no)

# lookup: test call for CC(C)N=C(N)N=C(N)Nc1ccc(Cl)cc1
0 (no)

Identify the outcome logged in this assay for the compound shown: COc1cc(O)c2c(c1)C(=O)c1cc(C)cc(O)c1C2=O
0 (no)

Given O=C(Cc1ccccc1)NC1CCN(S(=O)(=O)c2ccc(Cl)cc2)CC1 , state the outcome it received in this test.
0 (no)

# fetch the recorded call for Cc1ccc(S(=O)(=O)N2CCN(CCOc3ccccc3)CC2)cc1 here
0 (no)

What classification did NC(=NCCCCCCN=C(N)N=C(N)Nc1ccc(Cl)cc1)N=C(N)Nc1ccc(Cl)cc1 end up with in this test?
1 (yes)

Field: outcome | Entry: O=C1C(=O)c2ccccc2C(O)=C1C1CCC(c2ccc(Cl)cc2)CC1 (configuration not stated)
0 (no)

// return assay outcome for O=C(O)c1cccnc1C(=O)O
0 (no)
